B1: SETD8 (parent)
chain: KKAQGKTQQNRKLTDFYPVRRSSR

- Variants of: B1
- measurement_notes: protein stability index of a GFP-peptide fusion (GPS, HEK-293T) (PSI 1-6); higher = more stable;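 note: lentivirally expressed fusions sorted by FACS into six bins by GFP to DsRed ratio, PSI derived from sequencing read proportions per bin multiplied by bin number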
- experimental_setup: c terminus: a fixed tail appended
Record form. Attribute: protein stability index. Fill in for each entry.
// return a plain number; no unit text

Data request, read-out protein stability index, for KKAQGKTQQNRKLTDFYPVRRSGR [S23G]
1.83

Data request, read-out protein stability index, for KKAQGKTQQNRKLTDFDPVRRSSR [Y17D]
4.52

Data request, read-out protein stability index, for KKAQGKTQQNRKLTDFYPCRRSSR [V19C]
3.26

Data request, read-out protein stability index, for KKAQGKTQQNRKLTDFYPVNRSSR [R20N]
2.83

Data request, read-out protein stability index, for HKAQGKTQQNRKLTDFYPVRRSSR [K1H]
1.54

Data request, read-out protein stability index, for KKAQGKTQQNRKYTDFYPVRRSSR [L13Y]
3.47

Data request, read-out protein stability index, for KKACGKTQQNRKLTDFYPVRRSSR [Q4C]
1.64

Data request, read-out protein stability index, for KKAQGKTQQNRKLTDFYPERRSSR [V19E]
3.84

Data request, read-out protein stability index, for KKAQGKTQQNRKLTDFYPVRRPSR [S22P]
2.89

Data request, read-out protein stability index, for KKAQGKTQQNRKLTDFYPVTRSSR [R20T]
1.92

Data request, read-out protein stability index, for KKAQGKTQQNLKLTDFYPVRRSSR [R11L]
2.43

Data request, read-out protein stability index, for KKAQGKWQQNRKLTDFYPVRRSSR [T7W]
2.88

Data request, read-out protein stability index, for KKAQGKTDQNRKLTDFYPVRRSSR [Q8D]
3.23

Data request, read-out protein stability index, for KKAQGKTQQNRKLTIFYPVRRSSR [D15I]
3.18

Data request, read-out protein stability index, for KKAQGKTQQNRKLTMFYPVRRSSR [D15M]
2.43

Data request, read-out protein stability index, for KKAQGKTQQNEKLTDFYPVRRSSR [R11E]
2.15

Data request, read-out protein stability index, for KKAQGKTYQNRKLTDFYPVRRSSR [Q8Y]
2.02

Data request, read-out protein stability index, for CKAQGKTQQNRKLTDFYPVRRSSR [K1C]
1.22

Data request, read-out protein stability index, for KWAQGKTQQNRKLTDFYPVRRSSR [K2W]
3.07

Data request, read-out protein stability index, for KKAQGKTQQNRKLTDFYYVRRSSR [P18Y]
2.51

Data request, read-out protein stability index, for KKAQGKTQQNRKLYDFYPVRRSSR [T14Y]
2.65

Data request, read-out protein stability index, for KKAQGKTQQNRKNTDFYPVRRSSR [L13N]
3.26

Data request, read-out protein stability index, for KKAQGKTQQNRKLTDFEPVRRSSR [Y17E]
3.39

Data request, read-out protein stability index, for KKEQGKTQQNRKLTDFYPVRRSSR [A3E]
3.01

Data request, read-out protein stability index, for KKLQGKTQQNRKLTDFYPVRRSSR [A3L]
3.96

Data request, read-out protein stability index, for KKAQGKTQQNRKLTRFYPVRRSSR [D15R]
3.62

Data request, read-out protein stability index, for KKAQGKTQQNRLLTDFYPVRRSSR [K12L]
3.41

Data request, read-out protein stability index, for KKAQGKTQMNRKLTDFYPVRRSSR [Q9M]
2.25

Data request, read-out protein stability index, for KKAQGPTQQNRKLTDFYPVRRSSR [K6P]
2.06

Data request, read-out protein stability index, for KKAQGKTSQNRKLTDFYPVRRSSR [Q8S]
2.69

Data request, read-out protein stability index, for KKAQGKTQQNRKLTDFYPVRKSSR [R21K]
2.66

Data request, read-out protein stability index, for KKAQGKTQQNRKLTDGYPVRRSSR [F16G]
2.74

Data request, read-out protein stability index, for KKAQGKTQQNRKLTDFYCVRRSSR [P18C]
2.47

Data request, read-out protein stability index, for KKASGKTQQNRKLTDFYPVRRSSR [Q4S]
1.13

Data request, read-out protein stability index, for KKAQGKLQQNRKLTDFYPVRRSSR [T7L]
3.08

Data request, read-out protein stability index, for KKAQGKTQQNRKLTDFYPVRRSDR [S23D]
3.09

Data request, read-out protein stability index, for KKAQGKTQQNRKLVDFYPVRRSSR [T14V]
3.67

Data request, read-out protein stability index, for KKAQGKTQQARKLTDFYPVRRSSR [N10A]
1.64

Data request, read-out protein stability index, for QKAQGKTQQNRKLTDFYPVRRSSR [K1Q]
1.99

Data request, read-out protein stability index, for KGAQGKTQQNRKLTDFYPVRRSSR [K2G]
3.04

Data request, read-out protein stability index, for KKAQGKTNQNRKLTDFYPVRRSSR [Q8N]
2.89

Data request, read-out protein stability index, for KKAQGKTQPNRKLTDFYPVRRSSR [Q9P]
1.78

Data request, read-out protein stability index, for KKAQGKTQQNRKLTDFYWVRRSSR [P18W]
3.18

Data request, read-out protein stability index, for KKAQGKTQQNRKLTDAYPVRRSSR [F16A]
2.54

Data request, read-out protein stability index, for KKAQGKTQQNRKLTDFYPVRMSSR [R21M]
3.63

Data request, read-out protein stability index, for KKAQGKTQQNRKLTDFYQVRRSSR [P18Q]
1.74

Data request, read-out protein stability index, for KKAQGWTQQNRKLTDFYPVRRSSR [K6W]
2.33

Data request, read-out protein stability index, for MKAQGKTQQNRKLTDFYPVRRSSR [K1M]
2.54

Data request, read-out protein stability index, for KKSQGKTQQNRKLTDFYPVRRSSR [A3S]
3.47

Data request, read-out protein stability index, for KKADGKTQQNRKLTDFYPVRRSSR [Q4D]
4.69

Data request, read-out protein stability index, for KKAQGKTQQNRKLTDFYPQRRSSR [V19Q]
3.49

Data request, read-out protein stability index, for KKAQGKTQQNRKLTDFYPVRRQSR [S22Q]
2.37

Data request, read-out protein stability index, for KKAQGKTQQNRKLTDFYPVRRMSR [S22M]
3.38

Data request, read-out protein stability index, for KKAQGKTQQNRKLTDFYPVRRSLR [S23L]
4.44

Data request, read-out protein stability index, for KKAQGKTQQNRKFTDFYPVRRSSR [L13F]
3.52

Data request, read-out protein stability index, for KKAQGKTQQGRKLTDFYPVRRSSR [N10G]
1.42

Data request, read-out protein stability index, for KKAQGKTFQNRKLTDFYPVRRSSR [Q8F]
3.67

Data request, read-out protein stability index, for KKAQGKTQQNRKLTDFYNVRRSSR [P18N]
1.86

Data request, read-out protein stability index, for KKAQGKSQQNRKLTDFYPVRRSSR [T7S]
2.26

Data request, read-out protein stability index, for KKAQGKTQQNRKLTDFYPVRRSSN [R24N]
2.76

Data request, read-out protein stability index, for KKAQGKTQQNRKLTDFYPVRRSSM [R24M]
3.16

Data request, read-out protein stability index, for KKAQGKTQQNRKLTDFYPVRRSSQ [R24Q]
1.06

Data request, read-out protein stability index, for KKAQGKTQQNRKLTDFYPVRRSSA [R24A]
2.12

Data request, read-out protein stability index, for KKAQGKTQQNRYLTDFYPVRRSSR [K12Y]
3

Data request, read-out protein stability index, for KKAQGKTQQNRKLTDFYPVRRSSF [R24F]
2.57

Data request, read-out protein stability index, for KKAQGKTQQNRKLTDFYPVLRSSR [R20L]
2.32

Data request, read-out protein stability index, for KKAQGKTQQNRRLTDFYPVRRSSR [K12R]
1.86

Data request, read-out protein stability index, for WKAQGKTQQNRKLTDFYPVRRSSR [K1W]
2.09

Data request, read-out protein stability index, for KKAQGKTQQMRKLTDFYPVRRSSR [N10M]
2.39

Data request, read-out protein stability index, for KKTQGKTQQNRKLTDFYPVRRSSR [A3T]
2.43

Data request, read-out protein stability index, for KKAQGKTQQYRKLTDFYPVRRSSR [N10Y]
3.04

Data request, read-out protein stability index, for KKARGKTQQNRKLTDFYPVRRSSR [Q4R]
1.99

Data request, read-out protein stability index, for KKAQGKTQQNRKPTDFYPVRRSSR [L13P]
3.64

Data request, read-out protein stability index, for KKAQGKTQYNRKLTDFYPVRRSSR [Q9Y]
2.92

Data request, read-out protein stability index, for KKAQGKTQQNRKLTDFYPARRSSR [V19A]
4.57

Data request, read-out protein stability index, for KKAQGKTQQNRKLTCFYPVRRSSR [D15C]
2.52

Data request, read-out protein stability index, for KKAQGKTQQNRFLTDFYPVRRSSR [K12F]
1.93

Data request, read-out protein stability index, for KKAQGKTQQNRKSTDFYPVRRSSR [L13S]
2.79

Data request, read-out protein stability index, for KMAQGKTQQNRKLTDFYPVRRSSR [K2M]
2.54

Data request, read-out protein stability index, for KKAQGKTQQNRKLTDFYPVRRSPR [S23P]
2.65

Data request, read-out protein stability index, for KKAQGNTQQNRKLTDFYPVRRSSR [K6N]
2.82

Data request, read-out protein stability index, for KKAQGKTQQNRKLTDTYPVRRSSR [F16T]
3.17

Data request, read-out protein stability index, for KKDQGKTQQNRKLTDFYPVRRSSR [A3D]
3.79

Data request, read-out protein stability index, for KDAQGKTQQNRKLTDFYPVRRSSR [K2D]
2.65

Data request, read-out protein stability index, for KKAQGKTQQNRKLTNFYPVRRSSR [D15N]
2.92

Data request, read-out protein stability index, for KKAQGKTQQNRKLTDFYPWRRSSR [V19W]
2.09

Data request, read-out protein stability index, for KKAQGKTQQNPKLTDFYPVRRSSR [R11P]
2.61

Data request, read-out protein stability index, for KKQQGKTQQNRKLTDFYPVRRSSR [A3Q]
2.4

Data request, read-out protein stability index, for KKAQGKTQSNRKLTDFYPVRRSSR [Q9S]
2.36

Data request, read-out protein stability index, for KKAQGKTQQNRKLTDFYPVRPSSR [R21P]
2.7

Data request, read-out protein stability index, for KKAQGKTQQNRKLTDFYPVRRSTR [S23T]
2.23
